Each entry below carries its reported fold activation, T-cell proliferation, 33 nM, FcgR anchored, mean.
Target: T1, human GITR (amino acids M1-V241, NCBI Accession #NP_004186.1) expressed on cells (human, UniProt Q9Y5U5 26-241)
T1 sequence: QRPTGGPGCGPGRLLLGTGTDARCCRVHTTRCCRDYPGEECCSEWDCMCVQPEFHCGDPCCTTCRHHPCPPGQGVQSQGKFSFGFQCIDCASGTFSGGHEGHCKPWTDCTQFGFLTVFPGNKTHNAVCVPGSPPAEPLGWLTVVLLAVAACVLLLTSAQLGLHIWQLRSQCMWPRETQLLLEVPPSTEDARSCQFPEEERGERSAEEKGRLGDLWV
Test: cell-based or functional assay
measured-quantity: fold activation, T-cell proliferation, 33 nM, FcgR anchored, mean (fold)

H4H14516P (antibody, human IgG4, V domains shown, human IgG4 (H4H)) VH: EVQLVESGGGLVQPGGSLRLSCAASGFTFSNYEMYWVRQAPGKGLEWVSYISSSGTTIYYADSVKGRFSVSRENARSSLYLQMNSLRVEDSAVYFCAKYNWNSFYGLDVWGQGTTVTVSS VL: AIQMTQSPSSLSASVGDRVTITCRASQDIRNDLGWYQQKPGKAPKLLISAASSLQGGVPSRFSGSGSGTDFTLTISSLQPADFATYYCLQEYNYALTFGGGTKVEIK    1.1
H4H14475P (antibody, human IgG4, V domains shown, human IgG4 (H4H)) VH: QVQLVESGGGVVQPGRSLRLSCAASGTIFSTHGMHWVRQAPGKGLEWVAVISYDGNKKYYAGSVKGRFTISRDNSKNTLYLQMNDVRSEDTAVYHCTTDITGITDYWGQGTLVTVSS VL: DIQMTQSPSSLSASVGDRVTITCRASQGIGNDLGWYQQKLGKAPKRLIYAASSLESGVPSRFSGSGSGTEFILTISSLQAEDFATYYCLQHNGFPTFGQGTKVEIK    1.3
H4H14521P (antibody, human IgG4, V domains shown, human IgG4 (H4H)) VH: EVQLVESGGGLVQPGGSLRLSCAASGFTFRVYEMNWVRQAPGKGLEWISYIGSSGFTIYYADSVKGRFTISRDNAKNSLFLQLNSLRAEDTAVYYCARGWNDGVPNYLGMDVWGQGTTVTVSS VL: DIQMTQSPSSLSASVGDRVTITCQASQDINKYLNWYQQKPGKAPKLLIYDASNLETGVPSRFSGSGSGTDFTFTISSLQPEDIARYHCQQYDKIPLTFGGGTKVEIK    1.2
H4H14469P (antibody, human IgG4, V domains shown, human IgG4 (H4H)) VH: QVQLVESGGGVVQPGGSLRLSCAVSGFTFSDYGMHWVRQVPGAGLEWVAVIYYEGSNKYYADSVKGRFTISRDNSKNTLYLQMNSLRVEDTSMYFCARGPLLGGNFYSYLMDVWGQGTTVTVSS VL: AIQMTQSPSSLSASVGDRVTITCRASQGIRNGLGWYQQKPGKAPKLLIYTASSLQSGVPSRFSGSGSGTDFTLTISSLQPEDFATYYCLQDYNYPFSFGPGTKVDIK    1.1
H4H14525P (antibody, human IgG4, V domains shown, human IgG4 (H4H)) VH: QVQLVESGGGVVQPGRSLRLSCAASGFTFSSYGMHWVRQAPGKGLEWVAVIWYVGSNKYYGESVKGRFTISRDNSKNTLYLQMNSLRDEDTAIYYCARGGQLGSFYYYGMDVWGQGTTVTVSS VL: DIQMTQSPSSLSASVGDRVTITCRASQGIRNDLGWYQQKPGKAPKRLIYDVSSLQSGVPSRFSGSGSGTEFTLTISSLQPEDLATYYCLQHNSYPWTFGQGTKVEIK    1.2
